- Assay Comment: binders of probe aHhip on microarray, primary screen, stem cell growth factor project, biochemical, small-molecule microarray, fluorescence 635/667 (AID 1087);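 also: score merges spot fluorescence at 667nm with spot signal to noise ratio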
- Condition Set: higher = more signal
Think of -0.1 as a floor: if composite z-score stands on it or above, it is fulfilled; beneath it, not fulfilled.

Worked examples follow.
>>> class("CC(=O)C1=CCC(c2ccccc2)N(S(=O)(=O)c2ccc(C)cc2)C1 (stereo not given)")
"fulfilled"
>>> class("COc1ccc(C(O)C2C=CC3C(=O)NC(=O)C3N2Nc2ccccn2)cc1OCc1ccccc1 (stereo not given)")
"fulfilled"
>>> class("COCCOC(=O)N1C(=O)[C@@]2(c3ccccc31)[C@H](C(=O)Nc1nc3ccccc3s1)[C@H]1C(=O)O[C@H](c3ccccc3)[C@H](c3ccccc3)N1[C@@H]2c1ccc(OCCO)cc1")
"not fulfilled"
>>> class("O=C(O)[C@H]1C[C@H]2C(=O)NCC(=O)N2[C@H]1c1ccc(O)cc1")
"not fulfilled"
>>> class("CC(C)N1C(=O)[C@@]2(c3ccc([N+](=O)[O-])cc3)CC(=O)N(CC34CC5CC(CC(C5)C3)C4)[C@@H]2c2ccc(CO)cc21")
"not fulfilled"
>>> class("CC(C)(C)N1CC=CC23O[C@@H]4/C=C\\CCCOC(=O)C4[C@H]2C(=O)N(CCO)[C@@H]3C1=O (stereo not given in full)")
"not fulfilled"
>>> class("CC(C)C[C@@H]1NC(=O)[C@H]2C[C@@H](C(=O)NCCCCCNC(=O)CS)[C@@H](c3cccc(OCCO)c3)N2C1=O")
"not fulfilled"
>>> class("NCCCCCNC(=O)[C@H]1C[C@H]2C(=O)NCC(=O)N2[C@H]1c1cccc(OCCO)c1")
"fulfilled"

Does C=C[C@H](C)[C@@H](O)c1ccc(O)c2ccccc12 have a reported composite z-score of at least -0.1?
fulfilled

* * *

- Assay Comment: binders of probe aFSTL3 on microarray, primary screen, stem cell growth factor project, biochemical, small-molecule microarray, fluorescence 635/667 (AID 1064);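 also: measures binding of the biotinylated anti-FSTL3 antibody to printed compounds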
- Condition Set: higher = more signal
Endpoint Name: composite z-score
Numbers only.

Previously resolved entries follow.
>>> test_result("CC(C)CNC(=O)[C@@]1(c2ccc([N+](=O)[O-])cc2)CC(=O)N(CC23CC4CC(CC(C4)C2)C3)[C@@H]1c1ccc(CO)cc1")
0.158
>>> test_result("COCCOC(=O)N1C(=O)[C@@]2(c3cc(C#CCCO)ccc31)[C@H](c1ccccc1OCCO)N1[C@H](c3ccccc3)[C@H](c3ccccc3)OC(=O)[C@H]1[C@@H]2C(=O)N1CCN(c2ncccn2)CC1")
0.546

Please turn your attention to the following entry.
Please fill in: composite z-score reported for COc1ccc([Si](C)(C)[C@H]2[C@H](CC(=O)N(CCO)Cc3ccccc3)O[C@@]3(C(=O)N(Cc4cccc(N5CCC5=O)c4)c4ccccc43)[C@@H]2C)cc1 = 0.0204

* * *

Record form. Attribute: composite z-score. Fill in for each entry.
- Tested On: Dickkopf-related protein 1 (Homo sapiens) (UniProt O94907)
- Sequence (O94907 whole entry, looked up): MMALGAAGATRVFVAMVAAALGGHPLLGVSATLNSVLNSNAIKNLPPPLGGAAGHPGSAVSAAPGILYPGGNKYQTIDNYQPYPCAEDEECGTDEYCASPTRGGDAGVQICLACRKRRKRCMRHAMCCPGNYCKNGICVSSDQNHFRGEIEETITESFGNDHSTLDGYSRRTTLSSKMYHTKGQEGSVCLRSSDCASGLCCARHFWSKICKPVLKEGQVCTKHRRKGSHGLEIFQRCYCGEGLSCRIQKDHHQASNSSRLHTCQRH
- Assay Comment: DKK1 binders on small-molecule microarrays, primary screen, biochemical, small-molecule microarray, 635 nm fluorescence scan (AID 1106);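 also: score merges emission near 667 nm with signal to noise over three replicate slides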
- Condition Set: DKK1 binding, higher = more signal
Numbers only.

>>> test_result("COC(=O)[C@@]1(Cc2ccc(F)cc2)[C@H]2c3cc(C(=O)N4CCCC4)n(Cc4cccc5ccccc45)c3C[C@H]2CN1C(=O)c1ccccc1")
-0.538
>>> test_result("C=C(COC)/C(=C/C[C@H](OC(=O)c1ccncc1)c1cccc(OCCO)c1)c1cc(C(=O)OC)ccc1OC")
-0.0833

Give composite z-score for each of the items listed below.
1. O=c1cccc(CCc2ccccc2)o1
2. COCCOC(=O)N1C(=O)[C@@]2(c3cc(C#CCC(C(=O)OC)C(=O)OC)ccc31)[C@H](c1ccccc1OCCO)N1[C@H](c3ccccc3)[C@H](c3ccccc3)OC(=O)[C@H]1[C@@H]2C(N)=O
3. COCCOC(=O)N1C(=O)[C@@]2(c3cc(C#CCNC(N)=O)ccc31)[C@H](C(=O)N1CCN(c3ncccn3)CC1)[C@H]1C(=O)O[C@H](c3ccccc3)[C@H](c3ccccc3)N1[C@@H]2c1ccccc1OCCO
4. COC(=O)C1=CC(CCCO)=CC(C2CC2)N(Cc2sc3ccccc3c2Cl)C=C1C(=O)OC (stereo unspecified)
5. COCCOC(=O)N1C(=O)[C@@]2(c3cc(C#CCC(C(=O)OC)C(=O)OC)ccc31)[C@H](c1ccc(O)cc1)N1[C@H](c3ccccc3)[C@H](c3ccccc3)OC(=O)[C@H]1[C@@H]2C(N)=O
6. CCCCC(CC)C(O)C1C=CC2C(=O)N(c3ccccc3)C(=O)C2N1Nc1ccccc1 (stereo unspecified)

1: 0.193; 2: 0.451; 3: 1.7; 4: -0.0017; 5: 0.417; 6: -0.648

Give composite z-score for each of the items listed below.
1. C=CC(=C)C1=CCO[C@@H]1[C@H]1CCCN1S(=O)(=O)c1ccccc1[N+](=O)[O-]
2. COC(=O)C[C@@H]1C[C@H](C)[C@]2(O1)C(=O)N(Cc1ccccc1)c1ccc(NC(C)=O)cc12
3. C[C@]1(C(=O)NCc2ccccc2)c2ccccc2C(=O)N(Cc2cc(F)cc(C(F)(F)F)c2)[C@H]1c1ccc(CO)cc1
4. CC(C)NC(=O)[C@@H]1c2ccccc2C(=O)N(Cc2ccccc2)[C@H]1c1ccc(CO)cc1
5. C=C(CCCC)/C(=C/C[C@H](OC(C)=O)c1ccc(CO)o1)c1cnc2ccccc2c1
6. C=C[C@H](C)[C@@H](O)c1ccc(O)c2ccccc12

[0.797, 0.355, -1.21, -1.05, 0.601, 0.0078]

Give composite z-score for each of the items listed below.
1. Cc1cc(C)cc(N2C(=O)CS(=O)(=O)C2c2cccc([N+](=O)[O-])c2)c1 (stereo unspecified)
2. COc1ccc([Si](C)(C)[C@H]2[C@H](CCn3cc([C@H](O)c4ccccc4)nn3)O[C@@]3(C(=O)N(Cc4cccc(N5CCC5=O)c4)c4ccccc43)[C@@H]2C)cc1

0.122
-0.0723

* * *

- Assay Comment: binders of probe aFGF10 on microarray, primary screen, stem cell growth factor project, biochemical, small-molecule microarray, fluorescence 635/667 (AID 1071);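 also: score merges 667 nm spot intensity and signal to noise from triplicate slides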
- Condition Set: higher = more signal
Think of 0.5 as a floor: if composite z-score stands on it or above, it is criterion met; beneath it, criterion not met.

>>> class("CN1C(=O)C2C(C1=O)C1C=C(CCCO)C2C(c2cccs2)N1C (stereo unspecified)")
"criterion met"

Does CS(=O)(=O)CCOC(=O)C1=CC(c2ccc(CO)cc2)=CC(C2CC2)N(Cc2cc3c(cc2Br)OCO3)C=C1C(=O)OCCS(C)(=O)=O (stereo unspecified) have a reported composite z-score of at least 0.5?
criterion met

Does O=C(NCc1ccccc1)[C@]1(CCS(=O)(=O)c2ccccc2)N=C(c2ccc(OCCCO)cc2)O[C@@H]1c1ccccc1 have a reported composite z-score of at least 0.5?
criterion met

Does COC(=O)[C@@]1(Cc2ccccc2)[C@H]2c3cc(C(=O)N(C)C)n(Cc4c(-c5ccccc5)noc4C)c3C[C@H]2CN1C(=O)c1ccccc1 have a reported composite z-score of at least 0.5?
criterion not met

Does C#CCN(C(/C=C/c1ccccc1)CO)C(C(=O)O)c1ccccc1 (stereo unspecified) have a reported composite z-score of at least 0.5?
criterion not met

Does [N-]=[N+]=NCc1ccccc1C[C@]1(C(=O)O)N=C(c2ccc(OCCCO)cc2)O[C@H]1c1ccccc1CN=[N+]=[N-] have a reported composite z-score of at least 0.5?
criterion not met

Does COCC1=C2[C@@H](CCc3ccccc3)OB(O)C[C@@H]2[C@@H]2C(=O)N(Cc3ccccc3)C(=O)[C@@H]2C1 have a reported composite z-score of at least 0.5?
criterion not met

Does C=C(CCCC)/C(=C/C[C@H](OC(C)=O)c1ccc(CO)o1)c1cnc2ccccc2c1 have a reported composite z-score of at least 0.5?
criterion met

Does CC(C)CNC(=O)[C@@]1(c2ccc([N+](=O)[O-])cc2)CC(=O)N(CC23CC4CC(CC(C4)C2)C3)[C@@H]1c1ccc(CO)cc1I have a reported composite z-score of at least 0.5?
criterion not met

Does COCCOC(=O)N1C(=O)[C@@]2(c3cc(C#CCC(C(=O)OC)C(=O)OC)ccc31)[C@H](c1ccc(O)cc1)N1[C@H](c3ccccc3)[C@H](c3ccccc3)OC(=O)[C@H]1[C@@H]2C(N)=O have a reported composite z-score of at least 0.5?
criterion met

Does O=C1O[C@@H](c2ccccc2)[C@@H](c2ccccc2)N2[C@@H](c3ccc(O)cc3)[C@]3(C(=O)Nc4ccc(C#CC5(O)CCCCCC5)cc43)[C@@H](C(=O)N3CCCCCCC3)[C@H]12 have a reported composite z-score of at least 0.5?
criterion met

* * *

- Tested On: Dickkopf-related protein 1 (Homo sapiens) (UniProt O94907)
- Assay Comment: DKK1 binders on small-molecule microarrays, primary screen, biochemical, small-molecule microarray, 635 nm fluorescence scan (AID 1106);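 also: score merges emission near 667 nm with signal to noise over three replicate slides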
- Condition Set: DKK1 binding, higher = more signal
Endpoint Name: composite z-score
Give bare numbers.

Previously resolved entries follow.
>>> test_result("O=c1oc(-c2ccccc2)nc2cc(Br)ccc12")
0.508
>>> test_result("COc1ccc([Si](C)(C)[C@H]2[C@H](CCn3cc(CCO)nn3)O[C@@]3(C(=O)N(Cc4ccc(N5CCOC5=O)cc4)c4ccccc43)[C@@H]2C)cc1")
0.141
>>> test_result("O=C1O[C@@H](c2ccccc2)[C@@H](c2ccccc2)N2[C@@H](c3ccc(OCCO)cc3)[C@]3(C(=O)Nc4ccc(C#CC5=CCCCC5)cc43)[C@@H](C(=O)O)[C@H]12")
0.581

Give composite z-score for each of the items listed below.
1. [N-]=[N+]=NCc1ccccc1C[C@@]1(C(=O)NCC(O)CO)N=C(c2ccc(OCCCO)cc2)O[C@@H]1c1ccccc1CN=[N+]=[N-] (some centres not stated)
2. Cc1ccc(S[C@]2(C(=O)NCc3ccccc3)CC(=O)N(Cc3ccccc3Cl)[C@@H]2c2ccc(CO)cc2I)cc1
3. CC(=O)NCCCC[C@@H]1NC(=O)[C@@H]2C[C@H](C(=O)NCCCCCCNC(=O)CS)[C@H](c3ccc(O)cc3)N2C1=O
4. O=C(O)[C@@]1(Cc2ccccc2)N=C(c2ccc(OCCCO)cc2)O[C@H]1c1ccccc1

1: -0.643; 2: -1.22; 3: -0.233; 4: -0.872
